# targetUnderTest: hURAT1 (Homo sapiens (Human), UniProt Q96S37)
# Sequence (Q96S37 whole entry): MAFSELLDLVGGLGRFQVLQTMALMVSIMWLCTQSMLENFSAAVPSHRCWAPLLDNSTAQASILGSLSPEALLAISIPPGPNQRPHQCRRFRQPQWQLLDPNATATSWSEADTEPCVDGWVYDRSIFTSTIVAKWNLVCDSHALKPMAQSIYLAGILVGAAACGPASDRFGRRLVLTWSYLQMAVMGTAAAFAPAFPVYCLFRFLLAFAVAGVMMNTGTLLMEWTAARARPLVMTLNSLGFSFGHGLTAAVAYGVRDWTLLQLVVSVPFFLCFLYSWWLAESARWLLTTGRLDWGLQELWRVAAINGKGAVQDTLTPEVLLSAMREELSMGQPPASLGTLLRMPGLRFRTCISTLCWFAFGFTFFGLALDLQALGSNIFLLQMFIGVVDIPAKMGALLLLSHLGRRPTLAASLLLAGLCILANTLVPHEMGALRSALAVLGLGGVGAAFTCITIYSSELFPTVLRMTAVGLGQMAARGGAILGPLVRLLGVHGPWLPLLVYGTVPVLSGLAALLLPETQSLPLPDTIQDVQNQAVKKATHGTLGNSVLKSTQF
# assayComment: 14C-uric acid transport inhibition in transfected HEK293/hURAT1 cells
# experimentalContext: 14C-uric acid uptake, 10 mins incubation, read-out: IC50 value against hURAT1
readoutType: IC50 (nM)

[[record]]
molecule = "Cc1nc(Cc2c(Cl)cccc2Cl)n2cc(CCC(=O)O)ccc12"
targetundertest = "hURAT1 (Homo sapiens (Human), UniProt Q96S37)"
readouttype = "IC50"
assayvalue = 289

[[record]]
molecule = "CC(Sc1ccc2cncc(-c3ccc(C#N)c4ccccc34)c2c1)C(=O)O (centres unmarked)"
targetundertest = "hURAT1 (Homo sapiens (Human), UniProt Q96S37)"
readouttype = "IC50"
assayvalue = 100

[[record]]
molecule = "N#Cc1ccc(-c2cncc3ccc(/C=C/C(=O)O)cc23)c2ccccc12"
targetundertest = "hURAT1 (Homo sapiens (Human), UniProt Q96S37)"
readouttype = "IC50"
assayvalue = 385

[[record]]
molecule = "CC(C)(Cc1cc2cncc(-c3ccc(C#N)cc3)c2s1)C(=O)O"
targetundertest = "hURAT1 (Homo sapiens (Human), UniProt Q96S37)"
readouttype = "IC50"
assayvalue = 42

[[record]]
molecule = "CC(O)(CC(=O)O)c1cc2c(-c3ccc(C#N)c4ccccc34)cncc2s1 (centres unmarked)"
targetundertest = "hURAT1 (Homo sapiens (Human), UniProt Q96S37)"
readouttype = "IC50"
assayvalue = 934

[[record]]
molecule = "N#Cc1ccc(-c2cncc3ccc(C(=O)O)cc23)cc1"
targetundertest = "hURAT1 (Homo sapiens (Human), UniProt Q96S37)"
readouttype = "IC50"
assayvalue = 2530

[[record]]
molecule = "Cc1nn(Cc2c(Cl)cccc2Cl)c2cc(SC(C)(C)C(=O)O)ccc12"
targetundertest = "hURAT1 (Homo sapiens (Human), UniProt Q96S37)"
readouttype = "IC50"
assayvalue = 119

[[record]]
molecule = "CC(C)(Sc1cc(F)c2cncc(-c3ccc(C#N)c4ccccc34)c2c1)C(=O)O"
targetundertest = "hURAT1 (Homo sapiens (Human), UniProt Q96S37)"
readouttype = "IC50"
assayvalue = 127

[[record]]
molecule = "CC(C)(Cc1cc2cncc(-c3ccc(C#N)c4ccccc34)c2s1)C(=O)O"
targetundertest = "hURAT1 (Homo sapiens (Human), UniProt Q96S37)"
readouttype = "IC50"
assayvalue = 139

[[record]]
molecule = "CC(C)(Sc1ccc2cncc(-c3ccc(C#N)cc3Cl)c2c1)C(=O)O"
targetundertest = "hURAT1 (Homo sapiens (Human), UniProt Q96S37)"
readouttype = "IC50"
assayvalue = 18

[[record]]
molecule = "CC(C)(Sc1ccc2cncc(-c3ccc(C#N)c4ccc(F)cc34)c2c1)C(=O)O"
targetundertest = "hURAT1 (Homo sapiens (Human), UniProt Q96S37)"
readouttype = "IC50"
assayvalue = 71

[[record]]
molecule = "CC(CC(=O)O)c1ccc2cncc(-c3ccc(C#N)cc3)c2c1 (centres unmarked)"
targetundertest = "hURAT1 (Homo sapiens (Human), UniProt Q96S37)"
readouttype = "IC50"
assayvalue = 189

[[record]]
molecule = "N#Cc1ccc(-c2cncc3ccc(CC(=O)O)cc23)c2ccccc12"
targetundertest = "hURAT1 (Homo sapiens (Human), UniProt Q96S37)"
readouttype = "IC50"
assayvalue = 327

[[record]]
molecule = "CC(C)(Cc1cc2c(Cc3c(Cl)cccc3Cl)cccc2s1)C(=O)O"
targetundertest = "hURAT1 (Homo sapiens (Human), UniProt Q96S37)"
readouttype = "IC50"
assayvalue = 3470

[[record]]
molecule = "CC(C)(Sc1ccc2cncc(-c3ccc(C#N)cc3)c2c1)C(=O)O"
targetundertest = "hURAT1 (Homo sapiens (Human), UniProt Q96S37)"
readouttype = "IC50"
assayvalue = 15

[[record]]
molecule = "CC(C)(Cc1cc2c(-c3ccc(C#N)c4ccccc34)cncc2s1)C(=O)O"
targetundertest = "hURAT1 (Homo sapiens (Human), UniProt Q96S37)"
readouttype = "IC50"
assayvalue = 18

[[record]]
molecule = "CC(CC(=O)O)c1cc2c(-c3ccc(C#N)c4ccccc34)cncc2s1 (racemic)"
targetundertest = "hURAT1 (Homo sapiens (Human), UniProt Q96S37)"
readouttype = "IC50"
assayvalue = 24

[[record]]
molecule = "N#Cc1ccc(-c2cncc3cc(CCC(=O)O)sc23)c2ccccc12"
targetundertest = "hURAT1 (Homo sapiens (Human), UniProt Q96S37)"
readouttype = "IC50"
assayvalue = 87

[[record]]
molecule = "CC(C)(Cc1ccc2cncc(-c3ccc(C#N)c4ccccc34)c2c1)C(=O)O"
targetundertest = "hURAT1 (Homo sapiens (Human), UniProt Q96S37)"
readouttype = "IC50"
assayvalue = 12

[[record]]
molecule = "N#Cc1ccc(-c2cncc3cc(C(=O)O)sc23)c2ccccc12"
targetundertest = "hURAT1 (Homo sapiens (Human), UniProt Q96S37)"
readouttype = "IC50"
assayvalue = 2860

[[record]]
molecule = "CC(CC(=O)O)c1ccc2cncc(-c3ccc(C#N)c4ccccc34)c2c1 (centres unmarked)"
targetundertest = "hURAT1 (Homo sapiens (Human), UniProt Q96S37)"
readouttype = "IC50"
assayvalue = 24

[[record]]
molecule = "CC(C)(Cc1ccc2cncc(-c3ccc(C#N)cc3)c2c1)C(=O)O"
targetundertest = "hURAT1 (Homo sapiens (Human), UniProt Q96S37)"
readouttype = "IC50"
assayvalue = 19

[[record]]
molecule = "CC(C)(Oc1ccc2cncc(-c3ccc(C#N)cc3)c2c1)C(=O)O"
targetundertest = "hURAT1 (Homo sapiens (Human), UniProt Q96S37)"
readouttype = "IC50"
assayvalue = 214

[[record]]
molecule = "CC(C)(Sc1ccc2cncc(-c3ccc(C#N)cc3F)c2c1)C(=O)O"
targetundertest = "hURAT1 (Homo sapiens (Human), UniProt Q96S37)"
readouttype = "IC50"
assayvalue = 57

[[record]]
molecule = "N#Cc1ccc(-c2cncc3cc(CC(=O)O)sc23)cc1"
targetundertest = "hURAT1 (Homo sapiens (Human), UniProt Q96S37)"
readouttype = "IC50"
assayvalue = 5400

[[record]]
molecule = "N#Cc1ccc(-c2cncc3cc(CC(=O)O)sc23)c2ccccc12"
targetundertest = "hURAT1 (Homo sapiens (Human), UniProt Q96S37)"
readouttype = "IC50"
assayvalue = 3420

[[record]]
molecule = "CC(C)(Sc1ccc2nccn2c1-c1ccc(C#N)cc1)C(=O)O"
targetundertest = "hURAT1 (Homo sapiens (Human), UniProt Q96S37)"
readouttype = "IC50"
assayvalue = 1730

[[record]]
molecule = "CC(C)(Sc1ccc2cncc(-c3cccc4c(C#N)cccc34)c2c1)C(=O)O"
targetundertest = "hURAT1 (Homo sapiens (Human), UniProt Q96S37)"
readouttype = "IC50"
assayvalue = 19

[[record]]
molecule = "CC(C)(Sc1ccncc1-c1ccc(C#N)c2ccccc12)C(=O)O [Verinurad (RDEA3170), reference compound]"
targetundertest = "hURAT1 (Homo sapiens (Human), UniProt Q96S37)"
readouttype = "IC50"
assayvalue = 113

[[record]]
molecule = "CC(C)(Sc1ccc2cncc(-c3ccc(C#N)c(Cl)c3)c2c1)C(=O)O"
targetundertest = "hURAT1 (Homo sapiens (Human), UniProt Q96S37)"
readouttype = "IC50"
assayvalue = 55

[[record]]
molecule = "CC(C)(Cc1cc2c(-c3ccc(C#N)c4ccccc34)cccc2s1)C(=O)O"
targetundertest = "hURAT1 (Homo sapiens (Human), UniProt Q96S37)"
readouttype = "IC50"
assayvalue = 209

[[record]]
molecule = "N#Cc1ccc(-c2cncc3ccc(CCC(=O)O)cc23)cc1"
targetundertest = "hURAT1 (Homo sapiens (Human), UniProt Q96S37)"
readouttype = "IC50"
assayvalue = 161

[[record]]
molecule = "CC(CC(=O)O)c1cc2cncc(-c3ccc(C#N)c4ccccc34)c2s1 (racemic)"
targetundertest = "hURAT1 (Homo sapiens (Human), UniProt Q96S37)"
readouttype = "IC50"
assayvalue = 37

[[record]]
molecule = "N#Cc1ccc(-c2cncc3ccc(SC4(C(=O)O)CCC4)cc23)c2ccccc12"
targetundertest = "hURAT1 (Homo sapiens (Human), UniProt Q96S37)"
readouttype = "IC50"
assayvalue = 18

[[record]]
molecule = "CC(C)(C(=O)O)c1ccc2cncc(-c3ccc(C#N)c4ccccc34)c2c1"
targetundertest = "hURAT1 (Homo sapiens (Human), UniProt Q96S37)"
readouttype = "IC50"
assayvalue = 116

[[record]]
molecule = "CC(Cc1ccc2cncc(-c3ccc(C#N)c4ccccc34)c2c1)C(=O)O (centres unmarked)"
targetundertest = "hURAT1 (Homo sapiens (Human), UniProt Q96S37)"
readouttype = "IC50"
assayvalue = 15

[[record]]
molecule = "CC(C)(Sc1ccc2cnnc(-c3ccc(C#N)c4ccccc34)c2c1)C(=O)O"
targetundertest = "hURAT1 (Homo sapiens (Human), UniProt Q96S37)"
readouttype = "IC50"
assayvalue = 971

[[record]]
molecule = "CC(C)(Sc1ccc2cncc(-c3ccc(C#N)c4c3OCCO4)c2c1)C(=O)O"
targetundertest = "hURAT1 (Homo sapiens (Human), UniProt Q96S37)"
readouttype = "IC50"
assayvalue = 62

